- tested system: Cyclin-dependent kinase 2/cyclin A (Homo sapiens)
- assay summary: Inhibition of human CDK2/cyclin A expressed in Escherichia coli BL21 by scintillation proximity assay
Catalogue of pIC50 values
When answering, recall that pIC50 equals minus log10 of the concentration in mol/L, and write that number alone.

- CC(=O)N1CCC(C(=O)N2Cc3c(NC(=O)c4ccc(F)cc4)n[nH]c3C2(C)C)CC1: 5.32
- CN1CCC(C(=O)N2Cc3c(NC(=O)c4ccncc4)n[nH]c3C2(C)C)CC1: 7.60
- CN1CCC(C(=O)N2Cc3c(NC(=O)c4cccs4)n[nH]c3C2(C)C)CC1: 8.00
- CN1CCC(C(=O)N2Cc3c(NC(=O)c4ccco4)n[nH]c3C2(C)C)CC1: 7.48
- CN1CCC(C(=O)N2Cc3c(NC(=O)c4ccc(C(F)(F)F)cc4)n[nH]c3C2(C)C)CC1: 7.59
- CCN1CCC(C(=O)N2Cc3c(NC(=O)c4ccc(F)cc4)n[nH]c3C2(C)C)CC1: 7.52
- CC1(C)c2[nH]nc(NC(=O)c3ccc(F)cc3)c2CN1C(=O)N1CCN(CCO)CC1: 7.22
- CN1CCC(C(=O)N2Cc3c(NC(=O)c4ccc(F)cc4)n[nH]c3C2(C)C)CC1: 7.64

The record that follows has no pIC50 shown yet.
IN: Consider the compound shown here: `CC(C)(C)C(=O)N1Cc2c(NC(=O)C3CCNCC3)n[nH]c2C1(C)C` What is its recorded pIC50?
OUT: 6.77
